Quick record of MIC values for Streptococcus pneumoniae.
Expressed in µg/mL, but write only the number.

Example entries and their recorded answers appear below.
CCn1cc(C(=O)O)c(=O)c2cc(F)c(N3CCSCC3)nc21 : 50
CCn1cc(C(=O)O)c(=O)c2cc(F)c(N3CCC(C(F)(F)F)CC3)cc21 : 6.3

Please examine the following record next.
Task: Specify reported MIC for the compound shown: CCn1cc(C(=O)O)c(=O)c2cc(F)c(C)cc21
Result: 100

----------
Tested on: Escherichia coli
assay.method.text: Antibacterial activity against Escherichia coli (H560)
For each record, check the reported MIC: if it is below 3 µg/mL write condition met, else write condition not met.

CCn1cc(C(=O)O)c(=O)cc1-c1ccc(OC)cc1 : condition not met
CCn1cc(C(=O)O)c(=O)c2cc(F)c(N3CCN(CCCN(C)C)CC3)cc21 : condition not met
CCn1cc(C(=O)O)c(=O)cc1/C=C/c1ccsc1 : condition not met
CCn1cc(C(=O)O)c(=O)cc1C : condition not met

Task: Problem: For the compound CCn1cc(C(=O)O)c(=O)c2cc(F)c(/C=N/O)nc21 , is MIC under 3 µg/mL?
Result: condition not met

Task: Problem: For the compound CCn1cc(C(=O)O)c(=O)c2cc(F)c(Cl)cc21 , is MIC under 3 µg/mL?
Result: condition met

----------
Tested on: Klebsiella pneumoniae
assay.method.text: Antibacterial activity against Klebsiella pneumonia (MGH-2)
Below, each entry is listed with its recorded MIC.
Expressed in µg/mL, but write only the number.

CCn1cc(C(=O)O)c(=O)c2cc(F)c(N3CCSC3)cc21 : 0.4
CCn1cc(C(=O)O)c(=O)c2cc(F)c(NCCN)nc21 : 25

Please examine the following record next.
Task: Specify reported MIC for the compound shown: CCn1cc(C(=O)O)c(=O)c2ccc(N3CCNCC3)nc21
Result: 12.5

----------
Below, each entry is listed with its recorded MIC.
System: Klebsiella pneumoniae
Expressed in µg/mL, but write only the number.

Example entries and their recorded answers appear below.
CCn1cc(C(=O)O)c(=O)c2cc([N+](=O)[O-])ccc21 : 12.5
CCn1cc(C(=O)O)c(=O)c2cc(F)c(Cl)cc21 : 1.6
CCn1cc(C(=O)O)c(=O)c2ccc(/C=N/O)nc21 : 12.5
CCn1cc(C(=O)O)c(=O)c2cc(F)c(N3CCC(C(N)=O)CC3)cc21 : 25
CCn1cc(C(=O)O)c(=O)c2ccc(/C=N/N3CCN(C)CC3)nc21 : 12.5
CCn1cc(C(=O)O)c(=O)c2cc(F)c(N3CCN(C)CC3)c(F)c21 : 0.4
CCn1cc(C(=O)O)c(=O)c2cc(F)c(N3CCCC3)nc21 : 3.1
CCn1cc(C(=O)O)c(=O)c2cc([N+](=O)[O-])c(C)nc21 : 50

Task: # return MIC for CCn1cc(C(=O)O)c(=O)c2cc(F)c(N3CCSC3)nc21 , test system: Klebsiella pneumoniae
Result: 0.4

Task: # return MIC for CCn1cc(C(=O)O)c(=O)c2ccc(-c3ccncc3)cc21 [ROSOXACIN] , test system: Klebsiella pneumoniae
Result: 0.4

----------
system.name: DNA gyrase (Escherichia coli, UniProt P0AES4+P0AES6)
assay.method.text: Inhibitory concentration in supercoiling inhibition Escherichia coli DNA gyrase assay
Assay type: protein-complex assay
conditions.used: read-out: I50 (converted)
For each record, check the reported IC50: if it is below 20 µM write t, else write f.

Task: Problem: For the compound CCn1cc(C(=O)O)c(=O)c2cc(F)c(-n3cccc3)cc21 [IRLOXACIN] , is IC50 under 20 µM?
Result: f
